target entity: TYK2-JH2 domain (Homo sapiens, UniProt P29597)
Construct: JAK1-JH2 domain or TYK2-JH2 domain enzyme in assay buffer
Sequence (P29597 589-875 limits assumed): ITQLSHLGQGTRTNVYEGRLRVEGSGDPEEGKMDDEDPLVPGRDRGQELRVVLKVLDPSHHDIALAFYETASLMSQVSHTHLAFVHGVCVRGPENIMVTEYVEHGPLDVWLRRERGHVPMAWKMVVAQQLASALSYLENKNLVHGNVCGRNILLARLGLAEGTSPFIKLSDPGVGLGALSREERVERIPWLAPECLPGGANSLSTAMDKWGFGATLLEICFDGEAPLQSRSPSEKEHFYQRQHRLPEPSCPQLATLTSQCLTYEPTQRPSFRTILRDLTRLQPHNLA
measurement description: Binding activity test for JH2 domain of TYK2 (Tb-antibody/tracer FRET)
measurement context: JH2 domain enzyme; 60 min at 25°C, then 4°C overnight; read-out: TYK2 JH2 Binding IC50
pIC50: −log10 of the molar value.
measurement kind: pIC50

COC(=O)c1cnc(NC(=O)C2CC2)cc1Nc1nn(C)c2ccc(CC#N)c(OC)c12 ... 9.82
COC(=O)c1cnc(NC(=O)C2CC2)cc1Nc1nn(CC#N)c2ccc(C(OC)C(F)(F)F)c(OC)c12 (stereo not shown) ... 8.82
COC(=O)c1cnc(NC(=O)C2CC2)cc1Nc1nn(C)c2ccc([C@H](O)C(F)(F)F)c(OC)c12 [Example 48A] ... 9.84
COC(=O)c1cnc2cc1Nc1nn(c3ccc(C(OC)C(F)(F)F)c(OC)c13)CCOCc1nc(ccc1F)N2 (stereo not shown) ... 9.32
COC(=O)c1cnc(NC(=O)C2CC2)cc1Nc1nc2ccc(N3CC(OC)C3)cn2n1 ... 9.60

P = [2H]C([2H])([2H])NC(=O)c1cnc(NC(=O)C2CC2)cc1Nc1csc2ccc(C(OC)C(F)(F)F)c(OC)c12 (stereo not shown)
Q = CCC(F)c1cnc(NC(=O)C2CC2)cc1Nc1nn(C)c2ccc([C@H](OC)C(F)(F)F)c(OC)c12 (stereo partly shown)
Exercise: Sort P and Q by pIC50 descending and give the first. Lab log: write the label of the selected item as the result.
Key: P
(P: 9.85, Q: 7.38)

----------
target entity: TYK2-JH2 domain (Homo sapiens)
Construct: JAK1-JH2 domain or TYK2-JH2 domain enzyme in assay buffer
measurement description: Binding activity test for JH2 domain of TYK2 (Tb-antibody/tracer FRET)
measurement context: ratio of JAK1 JH2 to TYK2 JH2 binding IC50
measurement kind: JAK1/TYK2 selectivity
Lab note: record just the number, no unit beside it.

Recorded JAK1/TYK2 selectivity, per entry:
[2H]C([2H])([2H])NC(=O)c1nnc(NC(=O)C2CC2)cc1Nc1ncn2cccc2c1OC [Example 198, reference compound] ... 7.0
COCOc1cnc(NC(=O)C2CC2)cc1Nc1cnn2ccc([C@H](OC)C(F)(F)F)c(OC)c12 ... 1.37

Value of JAK1/TYK2 selectivity reported for the compound [2H]C([2H])([2H])n1nc(Nc2cc(NC(=O)C3CC3)ncc2C(=O)OC)c2c(OC)c(C(OC)C(F)F)ccc21 (stereo not shown) is 114.31

Value of JAK1/TYK2 selectivity reported for the compound [2H]C([2H])([2H])NC(=O)c1nnc(NC(=O)C2CC23CC3)cc1Nc1cnn2ccc([C@H](O)C(F)(F)F)c(OC)c12 (single isomer, unassigned) [Example 82B] is 27.48

Value of JAK1/TYK2 selectivity reported for the compound [2H]C([2H])([2H])NC(=O)c1cnc(NC(=O)C2CC2)cc1Nc1cnn2ccc([C@H](O)C(F)(F)F)c(OC)c12 is 107.6

Value of JAK1/TYK2 selectivity reported for the compound COC(=O)c1cnc(NC(=O)C2CC2)cc1Nc1nsc2ccc(C(OC)C(F)(F)F)c(OC)c12 (single isomer, unassigned) [Example 67A] is 88.72

----------
measurement description: Caco-2 cell permeability
Type: in vitro ADME
measurement context: human; Caco-2, 10.0 µM, no p-gp inhibitor, 90 mins, A to B
measurement kind: Papp A→B at 1.5 h, 10 µM (×10⁻⁶ cm/s)
Just the number in ×10⁻⁶ cm/s, nothing appended.

Value of Papp A→B at 1.5 h, 10 µM reported for the compound COC(=O)c1cnc(NC(=O)[C@@H]2C[C@@H]2F)cc1Nc1nn(C)c2ccc(C(O)C(F)(F)F)c(OC)c12 (single isomer, unassigned) [Example 122A] is 27.4

----------
target entity: TYK2-JH2 domain (Homo sapiens, UniProt P29597)
Construct: JAK1-JH2 domain or TYK2-JH2 domain enzyme in assay buffer
measurement description: Binding activity test for JH2 domain of TYK2 (Tb-antibody/tracer FRET)
measurement context: JH2 domain enzyme; 60 min at 25°C, then 4°C overnight; read-out: TYK2 JH2 Binding IC50
pIC50: −log10 of the molar value.
measurement kind: pIC50

[2H]C([2H])([2H])NC(=O)c1cnc(NC(=O)C2CC2)cc1Nc1cnn2ccc(C(C)C(F)(F)F)c(OC)c12 (single isomer, unassigned) [Example 9B] ... 10.10
[2H]C([2H])([2H])NC(=O)c1cnc(NC(=O)C2CC2)cc1Nc1cnn2ccc(CC(C)(F)F)c(OC)c12 [Example 20] ... 10.24
[2H]C([2H])([2H])NC(=O)c1cnc(NC(=O)C2CC2)cc1Nc1cnn2ccc(Cl)c(OC)c12 [Example 3] ... 9.65

I = COC(=O)c1cnc(NC(=O)C2CC2)cc1Nc1nccc2c1N(C)[C@@H](C)c1nn(C)nc1-2 [Example 109]
II = [2H]C([2H])([2H])CC(=O)c1cnc(NC(=O)C2CC2)cc1Nc1nn(C)c2ccc(C#N)c(OC)c12 [Example 127]
Exercise: Sorting ascending by pIC50, which comes first: I or II ? Lab log: write the label of the selected item as the result.
Key: I
(I: 9.08, II: 9.59)

----------
Tested on: IFNa pSTAT1
measurement description: Phosphorylation of STAT1 inhibition in CCF-STTG1 cells by Jess
Format: cell-based
measurement context: Homo sapiens, 0.5 h; CCF-STTG1 astrocyte cells, IFNα induction 30 mins, Jess western; read-out: Jess_CCF-STTG1 IC50 (IFNa pSTAT1)
Each record here notes measured IC50.
Just the number in nM, nothing appended.

Recorded IC50, per entry:
[2H]C([2H])([2H])NC(=O)c1cnc(NC(=O)C2CC2)cc1Nc1cnn2ccc([C@H](O)C(F)(F)F)c(OC)c12 ... 6.82
COC(=O)c1cnc(NC(=O)C2CC2)cc1Nc1nn(C)c2ccc([C@H](O)C(F)(F)F)c(OC)c12 [Example 48A] ... 0.74
[2H]C([2H])([2H])O[C@@H](c1ccc2c(c(Nc3cc(NC(=O)C4CC4)ncc3C(=O)OC)nn2C)c1OC)C(F)(F)F [Example 50B] ... 3.73

Kindly consider the entry below.
Value of IC50 reported for the compound COC(=O)c1cnc(NC(=O)C2CC2)cc1Nc1nn(C)c2ccc([C@H](OC)C(F)(F)F)c(OC)c12 [Example 45B] is 3.5

----------
target entity: TYK2-JH2 domain (Homo sapiens)
Construct: JAK1-JH2 domain or TYK2-JH2 domain enzyme in assay buffer
measurement description: Binding activity test for JH2 domain of TYK2 (Tb-antibody/tracer FRET)
measurement context: JH2 domain enzyme; 60 min at 25°C, then 4°C overnight; read-out: TYK2 JH2 Binding IC50
measurement kind: IC50 (nM)

COCC(OC)c1ccc2c(c(Nc3cc(NC(=O)C4CC4)ncc3C(=O)OC)nn2C)c1OC (stereo not shown) [Example 159] ... 0.203
[2H]C([2H])([2H])NC(=O)c1cnc(NC(=O)C2CC2)cc1Nc1cnn2ccc([C@@H](O)C(F)(F)F)c(OC)c12 [Example 7B] ... 0.528
COc1c([C@H](OC)C(F)(F)F)ccn2ncc(Nc3cc(NC(=O)C4CC4)ncc3C(=O)CC#N)c12 [Example 91] ... 5.24
[2H]C([2H])([2H])NC(=O)c1cnc(NC(=O)C2CC2)cc1Nc1cnn2ccc(C#N)c(OC)c12 [Example 12] ... 0.308
CCC(F)(F)c1cnc(NC(=O)C2CC2)cc1Nc1nn(C)c2ccc(C(O)C(F)(F)F)c(OC)c12 (single isomer, unassigned) [Example 193A] ... 0.417
COC(=O)c1cnc(NC(=O)C2CC2)cc1Nc1nn(C2CC2)c2ccc(C(OC)C(F)(F)F)c(OC)c12 (stereo not shown) [Example 119] ... 0.308

----------
measurement description: Pharmacokinetic study in mice
Format: in vivo
measurement context: mouse, plasma, intravenous, 3 mg/kg, solution
measurement kind: AUC (ng·h/mL)
Just the number in ng·h/mL, nothing appended.

Value of AUC reported for the molecule [2H]C([2H])([2H])NC(=O)c1cnc(NC(=O)C2CC2)cc1Nc1nn(C)c2ccc([C@H](OC([2H])([2H])[2H])C(F)(F)F)c(OC)c12 [Example 55A] is 7600

----------
Each record here notes measured AUC(0-t).
measurement description: Mice colon pharmacokinetic studies
Type: in vivo
measurement context: mouse; colon tissue, female Balb/c mice, oral gavage, 10 mg/kg; read-out: Colon AUC0-24
Just the number in ng·h/mL, nothing appended.

[2H]C([2H])([2H])NC(=O)c1cnc(NC(=O)C2CC2)cc1Nc1cnn2ccc([C@H](O)C(F)(F)F)c(OC)c12 ... 45800

Value of AUC(0-t) reported for the molecule [2H]C([2H])([2H])NC(=O)c1cnc(NC(=O)C2CC2)cc1Nc1nn(C)c2ccc([C@H](O)C(F)(F)F)c(OC)c12 [Example 49A] is 21300
